Recorded percent TC-PTP degradation at 0.2 µM by entry
molecular target: UniProt:P17706; test: Degradation assay in HEK293 cells (immunoblotting); type: cell-based; parameters: endogenous in cells; host or cells: HEK293; details: 0.2 μM degrader, 16 hours, read-out: % Protein Degradation TC-PTP
Sequence (P17706 whole entry): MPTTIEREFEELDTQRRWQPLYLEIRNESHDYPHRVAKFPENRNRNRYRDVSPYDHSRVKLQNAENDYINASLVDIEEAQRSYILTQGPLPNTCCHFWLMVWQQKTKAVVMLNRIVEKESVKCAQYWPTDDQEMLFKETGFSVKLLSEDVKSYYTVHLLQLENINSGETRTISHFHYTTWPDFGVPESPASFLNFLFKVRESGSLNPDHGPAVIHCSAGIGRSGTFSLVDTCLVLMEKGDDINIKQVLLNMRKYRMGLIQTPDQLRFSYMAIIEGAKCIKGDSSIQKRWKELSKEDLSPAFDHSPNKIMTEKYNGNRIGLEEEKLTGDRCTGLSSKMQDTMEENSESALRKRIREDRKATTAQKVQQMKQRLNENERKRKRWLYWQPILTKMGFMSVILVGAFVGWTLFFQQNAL
*1 amine or outer side, *2 acyl side, *3 side chain or, on linkers, in order; H or OH if unused. Where a SMILES comes first, the peptide text is derived from it. [ ]: non-standard residue; d: D form. The star is where a group is joined. NHBn(4-(4-Me-thiazol-5-yl)) = Cc1ncsc1-c1ccc(CN*)cc1; NHCH2(1,3-C6H4)CH2CO = O=C(Cc1cccc(CN[*:1])c1)[*:2]; F2Pmp = N[C@@H](Cc1ccc(C(F)(F)P(=O)(O)O)cc1)C(=O)O; Phenylacetyl(4-OH,3-OMe) = COc1cc(CC(=O)*)ccc1O; Benzoyl(3-Br,4-Me) = Cc1ccc(C(=O)*)cc1Br; X1 = Cc1ncsc1-c1ccc([C@H](C)N*)cc1; Hyp = O=C(O)[C@@H]1C[C@@H](O)CN1; X2 = O=C(CCN1CCN([*:1])CC1)[*:2]; Tle = CC(C)(C)[C@H](N)C(=O)O; 4Amb = NCc1ccc(C(=O)O)cc1
readout_name: percent TC-PTP degradation at 0.2 µM

>>> reported_result("COc1cc(CC(=O)N[C@@H](Cc2ccccc2)C(=O)N[C@@H](Cc2ccc(C(F)(F)P(=O)(O)O)cc2)C(=O)N[C@@H](CCCCNC(=O)c2ccc(C)c(Br)c2)C(=O)NCc2ccccc2CCC(=O)N[C@H](C(=O)N2C[C@H](O)C[C@H]2C(=O)NCc2ccc(-c3scnc3C)cc2)C(C)(C)C)ccc1O (stereo in doubt) [Compound 40]")
"0%"
>>> reported_result("COc1cc(CC(=O)N[C@@H](Cc2ccccc2)C(=O)N[C@@H](Cc2ccc(C(F)(F)P(=O)(O)O)cc2)C(=O)N[C@@H](CCCCNC(=O)c2ccc(C)c(Br)c2)C(=O)N2CCN(CCC(=O)N[C@H](C(=O)N3C[C@H](O)C[C@H]3C(=O)NCc3ccc(-c4scnc4C)cc3)C(C)(C)C)CC2)ccc1O [Compound 56] ({Phenylacetyl(4-OH,3-OMe)}-F[F2Pmp]K(Benzoyl(3-Br,4-Me))[X2][Tle][Hyp]-{NHBn(4-(4-Me-thiazol-5-yl))})")
"14%"
>>> reported_result("COc1cc(CC(=O)N[C@@H](Cc2ccccc2)C(=O)N[C@@H](Cc2ccc(C(F)(F)P(=O)(O)O)cc2)C(=O)N[C@@H](CCCCNC(=O)c2ccc(C)c(Br)c2)C(=O)NCc2cccc(CC(=O)N[C@H](C(=O)N3C[C@H](O)C[C@H]3C(=O)N[C@@H](C)c3ccc(-c4scnc4C)cc3)C(C)(C)C)c2)ccc1O [Compound 47] ({Phenylacetyl(4-OH,3-OMe)}-F[F2Pmp]K(Benzoyl(3-Br,4-Me))[NHCH2(1,3-C6H4)CH2CO][Tle][Hyp]-X1)")
"92%"
>>> reported_result("COc1cc(CC(=O)N[C@@H](Cc2ccccc2)C(=O)N[C@@H](Cc2ccc(C(F)(F)P(=O)(O)O)cc2)C(=O)N[C@@H](CCCCNC(=O)c2ccc(C)c(Br)c2)C(=O)NCc2ccc(C(=O)N[C@H](C(=O)N3C[C@H](O)C[C@H]3C(=O)NCc3ccc(-c4scnc4C)cc3)C(C)(C)C)cc2)ccc1O [Compound 54] ({Phenylacetyl(4-OH,3-OMe)}-F[F2Pmp]K(Benzoyl(3-Br,4-Me))[4Amb][Tle][Hyp]-{NHBn(4-(4-Me-thiazol-5-yl))})")
"37%"
>>> reported_result("COc1cc(CC(=O)N[C@@H](Cc2ccccc2)C(=O)N[C@@H](Cc2ccc(C(F)(F)P(=O)(O)O)cc2)C(=O)N[C@@H](CCCCNC(=O)c2ccc(C)c(Br)c2)C(N)=O)ccc1O [Example 7]")
"0%"
